measurementTarget: PRMT1 (Homo sapiens, UniProt Q99873)
Construct: made in house
Sequence (Q99873 whole entry, species assumed): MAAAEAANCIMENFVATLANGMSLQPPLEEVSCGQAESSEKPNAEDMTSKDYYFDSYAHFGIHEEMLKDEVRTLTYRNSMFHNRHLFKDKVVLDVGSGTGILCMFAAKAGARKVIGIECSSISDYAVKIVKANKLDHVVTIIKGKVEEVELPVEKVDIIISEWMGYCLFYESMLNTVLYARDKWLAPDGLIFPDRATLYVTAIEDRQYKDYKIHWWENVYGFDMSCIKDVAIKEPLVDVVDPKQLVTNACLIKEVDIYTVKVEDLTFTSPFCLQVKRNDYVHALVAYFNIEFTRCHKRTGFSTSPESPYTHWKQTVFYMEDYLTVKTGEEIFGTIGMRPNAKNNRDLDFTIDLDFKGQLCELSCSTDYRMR
experimentDescription: SAHH-coupled fluorescence assay, inhibition of PRMT1
Format: biochemical
observable: inhibition at 10 µM (%)
Record the value in %, omitting the unit from your answer.

Input Nc1ncnc2c1ncn2[C@@H]1O[C@H](CSCCOc2ccc(-c3ccccc3O)cc2)[C@@H](O)[C@H]1O [Compound 14g] . Output inhibition at 10 µM: 5

Input Nc1ncnc2c1ncn2[C@@H]1O[C@H](CSCCNCc2cccc(-c3ccc(C(F)(F)F)cc3)c2)[C@@H](O)[C@H]1O [Compound 10e] . Output inhibition at 10 µM: 2

Input N=C(NCCCSC[C@H]1O[C@@H](n2cnc3c(N)ncnc32)[C@H](O)[C@@H]1O)Nc1cccc(-c2cccc([N+](=O)[O-])c2)c1 [Compound 6p] . Output inhibition at 10 µM: 93

Input COc1cc2nc(-c3cccc(O)c3)nc(NCCSC[C@H]3O[C@@H](n4cnc5c(N)ncnc54)[C@H](O)[C@@H]3O)c2cc1OC [Compound 12g] . Output inhibition at 10 µM: 2

Input N=C(NCCCSC[C@H]1O[C@@H](n2cnc3c(N)ncnc32)[C@H](O)[C@@H]1O)Nc1cccc(-c2ccoc2)c1 [Compound 6i] . Output inhibition at 10 µM: 95

Input N=C(NCCCSC[C@H]1O[C@@H](n2cnc3c(NCCCc4ccccc4)ncnc32)[C@H](O)[C@@H]1O)NCCc1ccccc1 [Compound 19l] . Output inhibition at 10 µM: 90

Input N=C(NCCSC[C@H]1O[C@@H](n2cnc3c(N)ncnc32)[C@H](O)[C@@H]1O)Nc1cccc(-c2ccoc2)c1 [Compound 6c] . Output inhibition at 10 µM: 84

Input Nc1ncnc2c1ncn2[C@@H]1O[C@H](CSCCNCc2cccc(-c3cncnc3)c2)[C@@H](O)[C@H]1O [Compound 10g] . Output inhibition at 10 µM: 5

Input Nc1ncnc2c1ncn2[C@@H]1O[C@H](CSCCNC(=O)NCc2ccc(-c3cc[nH]n3)cc2)[C@@H](O)[C@H]1O [Compound 8f] . Output inhibition at 10 µM: 27

Input Nc1ncnc2c1ncn2[C@@H]1O[C@H](CSCCNC(=O)NCCCc2ccccc2)[C@@H](O)[C@H]1O [Compound 7b] . Output inhibition at 10 µM: 13

---

Provide the reported inhibition at 10 µM of each item.
measurementTarget: PRMT6 (Homo sapiens, UniProt Q96LA8)
Sequence (Q96LA8 whole entry, species assumed): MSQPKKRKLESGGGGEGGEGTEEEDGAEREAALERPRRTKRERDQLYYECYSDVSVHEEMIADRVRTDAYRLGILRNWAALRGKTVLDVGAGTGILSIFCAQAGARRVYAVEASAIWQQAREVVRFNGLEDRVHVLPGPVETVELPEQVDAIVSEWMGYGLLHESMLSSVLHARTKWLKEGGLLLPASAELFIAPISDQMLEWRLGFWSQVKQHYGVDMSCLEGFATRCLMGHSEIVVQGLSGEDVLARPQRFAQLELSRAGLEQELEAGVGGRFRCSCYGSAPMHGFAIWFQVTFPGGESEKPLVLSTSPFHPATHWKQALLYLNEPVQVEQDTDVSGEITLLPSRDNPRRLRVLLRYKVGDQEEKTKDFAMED
experimentDescription: radioactive assay (Reaction Biology Corp.), inhibition of PRMT6
Type: biochemical
Record the value in %, omitting the unit from your answer.

Observed inhibition at 10 µM on PRMT6 (Homo sapiens, UniProt Q96LA8), entry Nc1ncnc2c1ncn2[C@@H]1O[C@H](CSCCOc2ccc(-c3cncnc3)cc2)[C@@H](O)[C@H]1O [Compound 14e] , equals 7

Observed inhibition at 10 µM on PRMT6 (Homo sapiens, UniProt Q96LA8), entry COc1cc2nc(-c3ccc(F)c(O)c3)nc(NCCSC[C@H]3O[C@@H](n4cnc5c(N)ncnc54)[C@H](O)[C@@H]3O)c2cc1OC [Compound 12f] , equals 16

Observed inhibition at 10 µM on PRMT6 (Homo sapiens, UniProt Q96LA8), entry N=C(NCCCSC[C@H]1O[C@@H](n2cnc3c(N)ncnc32)[C@H](O)[C@@H]1O)Nc1cccc(-c2cccc([N+](=O)[O-])c2)c1 [Compound 6p] , equals 98
